The reported numbers originate from ChEMBL document CHEMBL1150395.

Kindly supply the reported pIC50 values for the records listed here.
Biological target: Interleukin-1 receptor-associated kinase 4 (Homo sapiens, UniProt Q9NWZ3)
Sequence (Q9NWZ3 whole entry): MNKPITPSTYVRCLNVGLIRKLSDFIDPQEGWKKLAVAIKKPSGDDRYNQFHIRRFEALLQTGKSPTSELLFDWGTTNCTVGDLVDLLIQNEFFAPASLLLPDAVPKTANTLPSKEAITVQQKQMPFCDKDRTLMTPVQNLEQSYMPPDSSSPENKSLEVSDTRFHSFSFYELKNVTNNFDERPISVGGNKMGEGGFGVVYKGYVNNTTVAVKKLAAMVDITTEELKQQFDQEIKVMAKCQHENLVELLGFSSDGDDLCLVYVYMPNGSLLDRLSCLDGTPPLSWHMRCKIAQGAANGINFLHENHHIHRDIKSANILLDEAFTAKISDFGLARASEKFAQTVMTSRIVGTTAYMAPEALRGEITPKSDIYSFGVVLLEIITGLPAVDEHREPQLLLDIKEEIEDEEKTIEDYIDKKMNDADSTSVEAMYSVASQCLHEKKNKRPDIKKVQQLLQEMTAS
Assay: Inhibition of IRAK4
Bear in mind: pIC50 is minus log10 of a mol/L concentration; give just that figure.

query: Please state recorded pIC50 (tested on Interleukin-1 receptor-associated kinase 4 (Homo sapiens, UniProt Q9NWZ3)) of `c1cc(NC2CCNCC2)nc(-c2cncc3ccccc23)c1`
result: 5.71

query: Please state recorded pIC50 (tested on Interleukin-1 receptor-associated kinase 4 (Homo sapiens, UniProt Q9NWZ3)) of `c1cc(NC2CCNCC2)nc(-n2cnc3ccccc32)c1`
result: 7.15

query: Please state recorded pIC50 (tested on Interleukin-1 receptor-associated kinase 4 (Homo sapiens, UniProt Q9NWZ3)) of `c1cc(NC2CCNCC2)nc(-c2cnc3ccccn23)c1`
result: 7.46

query: Please state recorded pIC50 (tested on Interleukin-1 receptor-associated kinase 4 (Homo sapiens, UniProt Q9NWZ3)) of `CN(c1nccc(-c2cnc3ccccn23)n1)C1CCNCC1`
result: 6.70

---

Kindly supply the reported IC50 values for the records listed here.
Target: Mitogen-activated protein kinase 8 (Homo sapiens, UniProt P45983)
Sequence (P45983 whole entry): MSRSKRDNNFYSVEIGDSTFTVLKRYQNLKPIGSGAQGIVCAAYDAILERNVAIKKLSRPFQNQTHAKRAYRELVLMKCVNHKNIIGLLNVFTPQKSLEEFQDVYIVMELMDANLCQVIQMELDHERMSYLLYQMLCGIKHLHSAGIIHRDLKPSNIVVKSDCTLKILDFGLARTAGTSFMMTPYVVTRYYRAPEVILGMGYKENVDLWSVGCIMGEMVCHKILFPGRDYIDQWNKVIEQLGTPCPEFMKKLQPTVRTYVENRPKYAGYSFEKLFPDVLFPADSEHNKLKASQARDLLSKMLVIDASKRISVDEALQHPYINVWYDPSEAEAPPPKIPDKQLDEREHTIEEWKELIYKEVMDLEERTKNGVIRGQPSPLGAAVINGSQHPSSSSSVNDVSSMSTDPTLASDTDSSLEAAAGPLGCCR
Assay: Inhibition of JNK1
# output: bare number, implied unit µM

query: What IC50 value was documented for this molecule, `c1cc(NC2CCNCC2)nc(-c2n[nH]c3ccccc23)c1` ?
result: 2.08

query: What IC50 value was documented for this molecule, `c1ccn2c(-c3ccnc(NC4CCNCC4)n3)cnc2c1` ?
result: 3.8

---

Molecular target: Mitogen-activated protein kinase 10 (Homo sapiens)
Sequence (P53779 whole entry): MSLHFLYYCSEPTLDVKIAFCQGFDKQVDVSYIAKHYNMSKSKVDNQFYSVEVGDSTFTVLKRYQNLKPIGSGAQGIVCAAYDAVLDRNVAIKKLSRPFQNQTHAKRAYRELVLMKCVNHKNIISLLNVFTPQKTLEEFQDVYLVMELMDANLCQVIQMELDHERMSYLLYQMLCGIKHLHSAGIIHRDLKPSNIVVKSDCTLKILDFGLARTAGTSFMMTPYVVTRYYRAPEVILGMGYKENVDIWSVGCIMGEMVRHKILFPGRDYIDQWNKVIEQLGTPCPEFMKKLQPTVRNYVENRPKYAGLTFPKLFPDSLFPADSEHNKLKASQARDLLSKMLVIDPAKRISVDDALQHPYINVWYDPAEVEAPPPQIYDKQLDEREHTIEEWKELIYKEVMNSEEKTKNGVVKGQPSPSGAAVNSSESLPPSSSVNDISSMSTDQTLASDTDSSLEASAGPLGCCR
Assay: Inhibition of JNK3
experimentalReadout: IC50 (nM)
# output: bare number, implied unit nM

query: Please state recorded IC50 (tested on Mitogen-activated protein kinase 10 (Homo sapiens)) of `CN(c1nccc(-c2cnc3ccccn23)n1)C1CCCCC1`
result: 3

query: Please state recorded IC50 (tested on Mitogen-activated protein kinase 10 (Homo sapiens)) of `CNC(=O)CN1CCC(Nc2nccc(-c3cnc4ccccn34)n2)CC1`
result: 270

---

Target: Mitogen-activated protein kinase 9 (Homo sapiens)
Sequence (P45984 whole entry, looked up): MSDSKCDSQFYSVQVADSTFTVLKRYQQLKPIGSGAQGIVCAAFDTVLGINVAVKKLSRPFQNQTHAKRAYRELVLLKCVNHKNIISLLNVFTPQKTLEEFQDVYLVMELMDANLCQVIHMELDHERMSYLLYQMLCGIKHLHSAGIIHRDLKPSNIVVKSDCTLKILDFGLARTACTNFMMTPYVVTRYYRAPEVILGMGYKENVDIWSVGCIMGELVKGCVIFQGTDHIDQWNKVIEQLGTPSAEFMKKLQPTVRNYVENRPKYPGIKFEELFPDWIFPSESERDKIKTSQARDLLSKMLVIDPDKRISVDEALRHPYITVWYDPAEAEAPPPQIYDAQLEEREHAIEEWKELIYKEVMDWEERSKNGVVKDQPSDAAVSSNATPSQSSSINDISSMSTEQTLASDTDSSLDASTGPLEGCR
Assay: Inhibition of JNK2 at 10 uM
experimentalReadout: inhibition (%)
# output: bare number, implied unit %

query: What inhibition value was documented for this molecule, `c1cc(NC2CCNCC2)nc(-c2cncc3ccccc23)c1` ?
result: 0

query: What inhibition value was documented for this molecule, `c1cc(NC2CCNCC2)nc(-c2cnc3ccccn23)c1` ?
result: 15

query: What inhibition value was documented for this molecule, `c1ccn2c(-c3ccnc(OC4CCNCC4)n3)cnc2c1` ?
result: 30

query: What inhibition value was documented for this molecule, `CN(c1nccc(-c2cnc3ccccn23)n1)C1CCNCC1` ?
result: 35

query: What inhibition value was documented for this molecule, `c1cc(NC2CCNCC2)nc(-n2ccc3ccccc32)c1` ?
result: 0

query: What inhibition value was documented for this molecule, `c1cc(NC2CCNCC2)nc(-n2cnc3ccccc32)c1` ?
result: 0

query: What inhibition value was documented for this molecule, `c1ccn2c(-c3ccnc(NC4CCNCC4)n3)cnc2c1` ?
result: 59

query: What inhibition value was documented for this molecule, `c1ccn2c(-c3ccnc(NC4CCNCC4)c3)cnc2c1` ?
result: 0
